Each entry below carries its reported growth inhibition.
- TEST_SUMMARY: NCI Yeast Anticancer Drug Screen. Data for the sgs1 mgt1 strain (AID 161);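 further: 0% = growth of cultures given vehicle only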
- EXPERIMENTAL_SETUP: S. cerevisiae sgs1 mgt1 strain, at 50.0 µM, hits give high values
About 79,000 compounds went through this panel and 15% of them were active in at least one assay; those are over-represented in the sample as a whole.
The answer is to be given in %; state only the numeric part.

The following compounds have reported results that may help.
{"COMPOUND": "COc1cccc(C2=NC(C(C)C)CO2)c1OC (stereo unspecified)", "growth inhibition, %": -15.8}
{"COMPOUND": "COc1cc(C2c3cc4c(cc3OC(NNC(N)=S)C2C)OCO4)cc(OC)c1OC (stereo unspecified)", "growth inhibition, %": 2.5}
{"COMPOUND": "Cc1cc(C)nc(NC(=O)c2cc(C(=O)O)c(C(=O)Nc3cc(C)cc(C)n3)cc2C(=O)O)c1", "growth inhibition, %": -18.8}
{"COMPOUND": "COC(=O)C([O][Ge]([CH3])([CH3])[CH3])c1ccccc1 (stereo unspecified)", "growth inhibition, %": -1.5}
{"COMPOUND": "COc1ccc(C2C/C(=N/O)c3ccccc3O2)cc1 (stereo unspecified)", "growth inhibition, %": 5.85}

Next compound, please.
Return growth inhibition for the following compound: O=C1CC2(CCCCC2)CC(=O)N1
8.3
